experimental-target: UniProt:P32247
Sequence (P32247 whole entry): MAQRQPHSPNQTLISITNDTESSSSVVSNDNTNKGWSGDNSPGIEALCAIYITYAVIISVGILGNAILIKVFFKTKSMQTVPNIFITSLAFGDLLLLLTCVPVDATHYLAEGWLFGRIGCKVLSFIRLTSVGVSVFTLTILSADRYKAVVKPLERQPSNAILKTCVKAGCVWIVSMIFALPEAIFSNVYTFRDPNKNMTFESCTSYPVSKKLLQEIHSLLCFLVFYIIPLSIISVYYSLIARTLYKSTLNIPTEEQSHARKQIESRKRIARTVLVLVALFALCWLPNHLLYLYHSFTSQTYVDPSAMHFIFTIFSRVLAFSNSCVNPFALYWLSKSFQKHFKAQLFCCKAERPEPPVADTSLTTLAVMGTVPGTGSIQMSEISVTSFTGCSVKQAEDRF
protocol-notes: Agonist activity at human BRS-3 expressed in HEK293AEQ cells assessed as bioluminescence for 10 mins by aequorin bioluminescence assay relative to dY-peptide
Assay type: functional, cell-based
measure-name: Activity (%)

{"compound-string": "CC(C)(C)c1ccc(S(=O)(=O)N2Cc3ccc(C(F)(F)F)nc3Nc3cccc(-c4cccnc4)c32)cc1", "value-measured": 99}
{"compound-string": "CC(C)(C)c1ccc(S(=O)(=O)N2Cc3ccc(C(F)(F)F)nc3Nc3cccc(-c4noc(CO)n4)c32)cc1", "value-measured": 102}
{"compound-string": "CC(C)(C)c1ccc(S(=O)(=O)N2Cc3ccc(C(F)(F)F)nc3Nc3cccc(-c4noc(=O)[nH]4)c32)cc1", "value-measured": 104}
{"compound-string": "Cn1cc(-c2cccc3c2N(S(=O)(=O)c2ccc(C(C)(C)C)cc2)Cc2ccc(C(F)(F)F)nc2N3)cn1", "value-measured": 95}
